Measurement Target: equine FcRn (large alpha subunit p51) / equine beta-2-microglobulin complex, biotinylated (equine) (UniProt P30441)
Assay Info: SPR (Biacore), pH 6

| Binder | Kd / nM |
| --- | --- |
| equine IgG4 T286I (antibody, part only; not given: variable domains, not shown: another chain or arm of the molecule) constant: ASTTAPKVFPLASHSAATSGSTVALGCLVSSYFPEPVTVSWNSGALTSGVHTFPSVLQSSGLYSLSSMVTVPASSLKSQTYICNVAHPASSTKVDKKIVIKECNGGCPAECLQVGPSVFIFPPKPKDVLMISRTPTVTCVVVDVGHDFPDVQFNWYVDGVETHIATTEPKQEQFNSTYRVVSVLPIQHKDWLSGKEFKCKVNNKALPAPVERTISKPTGQPREPQVYVLAPHRDELSKNKVSVTCLVKDFYPTDIDIEWKSNGQPEPETKYSTTPAQLDSDGSYFLYSKLTVETNRWQQGTTFTCAVMHEALHNHYTEKSVSKSPGK | 13.3 |
| equine IgG1 Q311K (antibody, part only; not given: variable domains, not shown: another chain or arm of the molecule) constant: ASTTAPKVFALAPGCGTTSDSTVALGCLVSGYFPEPVKVSWNSGSLTSGVHTFPSVLQSSGFYSLSSMVTVPASTWTSETYICNVVHAASNFKVDKRIEPIPDNHQKVCDMSKCPKCPAPELLGGPSVFIFPPNPKDTLMITRTPEVTCVVVDVSQENPDVKFNWYMDGVEVRTATTRPKEEQFNSTYRVVSVLRIQHKDWLSGKEFKCKVNNQALPQPIERTITKTKGRSQEPQVYVLAPHPDELSKSKVSVTCLVKDFYPPEINIEWQSNGQPELETKYSTTQAQQDSDGSYFLYSKLSVDRNRWQQGTTFTCGVMHEALHNHYTQKNVSKNPGK | 14.7 |
